# Tested system: αvβ3-integrin expressed on the surface of HUVEC (Homo sapiens, UniProt P05106+P06756)
# Construct: αvβ3-integrin expressed on the surface of HUVEC; endogenous in cells; host or cells: HUVEC (confluent monolayers)
# Sequence (P06756 31-889 limits assumed): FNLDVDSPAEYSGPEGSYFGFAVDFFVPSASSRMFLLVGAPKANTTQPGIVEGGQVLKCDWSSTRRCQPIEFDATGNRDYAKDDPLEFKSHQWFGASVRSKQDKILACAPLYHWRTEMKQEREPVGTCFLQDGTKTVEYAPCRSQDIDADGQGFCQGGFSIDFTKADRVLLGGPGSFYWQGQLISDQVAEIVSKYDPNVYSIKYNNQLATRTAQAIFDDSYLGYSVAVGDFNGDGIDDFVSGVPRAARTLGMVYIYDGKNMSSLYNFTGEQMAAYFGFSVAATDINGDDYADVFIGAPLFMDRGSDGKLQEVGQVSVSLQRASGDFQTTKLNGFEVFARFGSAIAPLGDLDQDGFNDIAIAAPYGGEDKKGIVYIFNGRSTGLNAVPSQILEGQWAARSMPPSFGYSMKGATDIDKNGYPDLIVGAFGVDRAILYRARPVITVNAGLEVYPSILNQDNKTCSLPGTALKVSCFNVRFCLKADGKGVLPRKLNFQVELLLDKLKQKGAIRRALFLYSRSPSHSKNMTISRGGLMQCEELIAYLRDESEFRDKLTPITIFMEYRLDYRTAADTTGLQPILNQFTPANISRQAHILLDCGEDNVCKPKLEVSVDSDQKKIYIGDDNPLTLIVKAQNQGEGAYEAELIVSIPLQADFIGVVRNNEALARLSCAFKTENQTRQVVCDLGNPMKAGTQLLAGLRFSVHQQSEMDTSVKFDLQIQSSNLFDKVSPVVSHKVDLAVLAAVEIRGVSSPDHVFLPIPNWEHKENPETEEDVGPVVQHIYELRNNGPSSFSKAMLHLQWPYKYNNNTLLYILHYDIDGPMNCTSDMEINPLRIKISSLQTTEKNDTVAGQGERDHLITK
# Sequence (P06756 891-1048 partner limits assumed): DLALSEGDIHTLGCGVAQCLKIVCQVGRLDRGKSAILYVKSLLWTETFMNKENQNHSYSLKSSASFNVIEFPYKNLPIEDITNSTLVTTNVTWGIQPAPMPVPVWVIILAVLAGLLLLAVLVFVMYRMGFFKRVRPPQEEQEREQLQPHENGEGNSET
# Sequence (P05106 27-788): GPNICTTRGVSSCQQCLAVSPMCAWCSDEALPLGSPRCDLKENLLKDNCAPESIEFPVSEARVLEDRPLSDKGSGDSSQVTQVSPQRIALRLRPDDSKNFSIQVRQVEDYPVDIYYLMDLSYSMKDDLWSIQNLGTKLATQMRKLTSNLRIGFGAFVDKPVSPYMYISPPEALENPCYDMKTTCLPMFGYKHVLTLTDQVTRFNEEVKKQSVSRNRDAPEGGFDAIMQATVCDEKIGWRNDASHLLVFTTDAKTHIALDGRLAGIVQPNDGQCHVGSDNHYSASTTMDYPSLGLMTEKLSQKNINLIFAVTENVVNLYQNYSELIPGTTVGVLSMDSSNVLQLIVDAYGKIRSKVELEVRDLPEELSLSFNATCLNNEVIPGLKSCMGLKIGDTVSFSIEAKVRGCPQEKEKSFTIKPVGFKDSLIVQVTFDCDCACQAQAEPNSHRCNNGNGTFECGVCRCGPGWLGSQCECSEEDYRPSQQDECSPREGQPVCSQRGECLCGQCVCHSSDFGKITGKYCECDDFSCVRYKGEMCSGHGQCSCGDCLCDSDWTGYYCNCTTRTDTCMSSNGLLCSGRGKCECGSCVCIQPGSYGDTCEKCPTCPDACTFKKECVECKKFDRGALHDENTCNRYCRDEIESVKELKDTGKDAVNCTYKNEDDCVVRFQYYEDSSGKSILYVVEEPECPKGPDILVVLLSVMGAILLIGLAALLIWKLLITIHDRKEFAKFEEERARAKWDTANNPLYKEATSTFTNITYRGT
# Method: Competitive displacement of 125I-labeled echistatin
# Test parameters: displacement of 125I-echistatin, read-out: IC50 (binding affinity)
Endpoint label: pIC50
One number for each entry, as −log10 of the molar value.

// query pIC50 value for entry RGDPEG-avidin: avidin with RGD-peptide via vinylsulfone-PEG-NHS, average 5.4 RGD groups per avidin
6.87

----------
# Method: Organ distribution and liver losartan levels in BDL rats
# Type: in vivo
# Test parameters: rat, liver, oral, 5 mg/kg/day
Endpoint label: concentration at 10 min (ng/g)
Answers are plain numbers, in ng/g.

// query concentration at 10 min value for entry `CCCCc1nc(Cl)c(CO)n1Cc1ccc(-c2ccccc2-c2nn[nH]n2)cc1`
12100
